target: Amyloid-beta precursor protein (Homo sapiens); experiment: Binding affinity to Beta amyloid aggregates in Alzheimer's disease patient brain by competitive binding assay
Sequence (P05067 whole entry): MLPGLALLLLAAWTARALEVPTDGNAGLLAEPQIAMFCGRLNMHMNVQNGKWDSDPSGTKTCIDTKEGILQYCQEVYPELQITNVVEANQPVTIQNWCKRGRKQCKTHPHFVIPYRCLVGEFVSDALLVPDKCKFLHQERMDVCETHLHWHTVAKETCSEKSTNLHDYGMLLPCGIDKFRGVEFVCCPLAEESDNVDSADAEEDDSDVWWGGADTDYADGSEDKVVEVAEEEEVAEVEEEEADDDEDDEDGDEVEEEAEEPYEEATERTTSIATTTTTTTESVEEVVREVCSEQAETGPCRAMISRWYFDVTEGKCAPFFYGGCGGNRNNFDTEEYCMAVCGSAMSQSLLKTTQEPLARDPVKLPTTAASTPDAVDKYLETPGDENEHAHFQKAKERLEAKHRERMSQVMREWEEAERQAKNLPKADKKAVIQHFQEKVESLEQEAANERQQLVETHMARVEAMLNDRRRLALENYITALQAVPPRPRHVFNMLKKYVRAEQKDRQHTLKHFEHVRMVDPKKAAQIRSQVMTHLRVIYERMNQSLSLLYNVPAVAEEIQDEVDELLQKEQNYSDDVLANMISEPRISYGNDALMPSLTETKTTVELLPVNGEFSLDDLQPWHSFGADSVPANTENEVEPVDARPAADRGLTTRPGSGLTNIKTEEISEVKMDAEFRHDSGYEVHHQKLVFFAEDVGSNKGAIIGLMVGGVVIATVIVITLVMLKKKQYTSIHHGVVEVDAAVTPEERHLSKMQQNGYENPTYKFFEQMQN
Labelling field: enter yes if recorded Ki is less than 4 nM. Enter no if it equals or exceeds that cut-off.

Input line: In the record for O=C(O)c1cc(/N=N/c2ccc(-c3ccc(/N=N/c4ccc(O)c(C(=O)O)c4)cc3)cc2)ccc1O [CHRYSAMINE G] , is Ki less than 4 nM?
Output line: no

Input line: In the record for `CNc1ccc(/C=C/c2ccc(OCCOCCOCCOCCOCCOCCOCCF)cc2)cc1` , is Ki less than 4 nM?
Output line: no

Input line: In the record for `Oc1ccc(/C=C/c2cccc(I)c2)cc1` , is Ki less than 4 nM?
Output line: no

Input line: In the record for `CNc1ccc(/C=C/c2ccc(OCCOCCOCCOCCOCCOCCF)cc2)cc1` , is Ki less than 4 nM?
Output line: no

Input line: In the record for `CN(C)c1ccc(/C=C/c2ccccc2I)cc1` , is Ki less than 4 nM?
Output line: no

Input line: In the record for `CN(C)c1ccc(/C=C/c2cccc(I)c2)cc1` , is Ki less than 4 nM?
Output line: no

Input line: In the record for `CC(=C(C#N)C#N)c1ccc2cc(N(C)CCF)ccc2c1` , is Ki less than 4 nM?
Output line: no

Input line: In the record for `CNc1ccc(/C=C/c2ccc(OCCOCCOCCOCCOCCOCCOCCOCCOCCF)cc2)cc1` , is Ki less than 4 nM?
Output line: no

Input line: In the record for `CNc1ccc(/C=C/c2ccc(OCCOCCOCCOCCOCCOCCOCCOCCF)cc2)cc1` , is Ki less than 4 nM?
Output line: no

Input line: In the record for `CNc1ccc(/C=C/c2ccc(OCCOCCOCCOCCOCCOCCOCCOCCOCCOCCF)cc2)cc1` , is Ki less than 4 nM?
Output line: no

Input line: In the record for CNc1ccc(/C=C/c2ccc(OCC(CO)CF)cc2)cc1 (stereo unspecified) , is Ki less than 4 nM?
Output line: no

Input line: In the record for `CN(C)c1ccc(/C=C/c2nc3ccccc3s2)cc1` , is Ki less than 4 nM?
Output line: yes

Input line: In the record for `CNc1ccc(-c2nc3ccc(O)cc3s2)cn1` , is Ki less than 4 nM?
Output line: yes

Input line: In the record for CNc1ccc(-c2nc3ccc(O)cc3s2)cc1F [FLUTEMETAMOL] , is Ki less than 4 nM?
Output line: yes

Input line: In the record for `CN(C)c1ccc(/C=C/c2ccc(I)cc2)cc1` , is Ki less than 4 nM?
Output line: yes

Input line: In the record for CNc1ccc(/C=C/c2ccc(OCCOCCOCC[18F])nc2)cc1 [FLORBETAPIR F 18] , is Ki less than 4 nM?
Output line: yes

Data origin, for the record: ChEMBL document CHEMBL1156120
